# Study system: CDK2 (Homo sapiens)
# Construct: endogenous in cells; host or cells: OVCAR3 cells
# Test method notes: Phospho-RB measurement in OVCAR3 cells (HTRF phospho-RB S807/811)
# Format: cell-based
# Condition: phosphorylation of RB protein at S807/811, HTRF, 24 h compound treatment, 0.3 to 10,000 nM, read-out: pRb (uM)
Readout name: log10 IC50 (log10 of the value in µM)

| Compound | Study system | Measured value |
| --- | --- | --- |
| O=S1(=O)CC2(CC(Nc3nccc(-c4sc(C56CCC(CC5)C6)nc4-c4cccc(NS(=O)(=O)c5c(F)cccc5F)c4F)n3)C2)C1 [Example 32] | CDK2 (Homo sapiens) | -1.10 |
| CN1CC2CC(C1)N2c1nc(-c2cccc(NS(=O)(=O)c3c(F)cccc3F)c2F)c(-c2ccnc(NC3CC4(C3)CS(=O)(=O)C4)n2)s1 | CDK2 (Homo sapiens) | -0.36 |
| O=C1CC2CCC(C1)N2c1nc(-c2cccc(NS(=O)(=O)c3c(F)cccc3F)c2F)c(-c2ccnc(NC3CC4(C3)CS(=O)(=O)C4)n2)s1 | CDK2 (Homo sapiens) | -0.32 |
| O=S1(=O)CC2(CC(Nc3nccc(-c4sc(N5C6CCC5CNC6)nc4-c4cccc(NS(=O)(=O)c5c(F)cccc5F)c4F)n3)C2)C1 | CDK2 (Homo sapiens) | 0.83 |
| N#CC12CCC(CC1)N2c1nc(-c2cccc(NS(=O)(=O)c3c(F)cccc3F)c2F)c(-c2ccnc(NC3CC4(C3)CS(=O)(=O)C4)n2)s1 | CDK2 (Homo sapiens) | -0.70 |
| O=S1(=O)CC2(CC(Nc3nccc(-c4sc(C5(C(F)F)CC5)nc4-c4cccc(NS(=O)(=O)c5c(F)cccc5F)c4F)n3)C2)C1 | CDK2 (Homo sapiens) | -0.89 |
| O=S1(=O)C[C@@H]2[C@H](C1)[C@H]2Nc1nccc(-c2sc(C34CC(C3)C4)nc2-c2cccc(NS(=O)(=O)c3c(OC(F)F)cccc3C(F)(F)F)c2F)n1 | CDK2 (Homo sapiens) | 0.65 |
